Below, each entry is listed alongside its reported DC50.
target: AsPC-1 HiBiT-KRASG12D (Homo sapiens, UniProt P01116, G12D); construct: insert the HiBiT tag onto the N-terminus of one or more of the endogenous KRAS alleles; endogenous in cells; host or cells: AsPC-1 (ATCC CRL-1682), CRISPR-Cas9 knock-in clone, one tagged allele; test: HiBiT degradation assay (G12D), AsPC-1 HiBiT-KRASG12D cells; assay type: cell-based; conditions: AsPC-1 HiBiT-KRASG12D cells, 24 hours treatment, HiBiT luminescence
Sequence (P01116 1-188 isoform P01116-2 G12D): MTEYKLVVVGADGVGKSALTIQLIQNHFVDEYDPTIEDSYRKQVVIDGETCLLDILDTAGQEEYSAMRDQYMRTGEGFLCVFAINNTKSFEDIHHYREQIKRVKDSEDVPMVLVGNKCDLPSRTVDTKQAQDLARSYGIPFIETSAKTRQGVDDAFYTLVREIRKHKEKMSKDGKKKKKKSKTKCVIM

C#Cc1c(F)ccc2cc(O)cc(-c3ncc4c(N5CC6CCC(C5)N6)nc(OCCN5CCC(CCC6CN(c7cc([C@H](C(=O)N8C[C@H](O)C[C@H]8C(=O)N[C@@H](C)c8ccc(-c9scnc9C)cc8)C(C)C)on7)C6)CC5)nc4c3F)c12 | < 0.6 µM

Alright, here's another compound for you.
With AsPC-1 HiBiT-KRASG12D (Homo sapiens, UniProt P01116, G12D) as the test system, CCc1cccc2cc(O)cc(-c3ncc4c(N5CC6CCC(C5)N6)nc(OCCN5CCC(Oc6cc([C@@H](C(=O)N7C[C@H](O)C[C@H]7C(=O)N[C@@H](C)c7ccc(-c8scnc8C)cc7)C(C)C)on6)CC5)nc4c3F)c12 (relative stereo) showed DC50 of 1 to 3 µM
